Provide the recorded IC50 for the entries that follow.
System: cellular H3K36me2 level in multiple myeloma cell line KMS11 (t(4;14)+)
experiment.description: H3K36me2 cellular ELISA assay in KMS11-Par line
Format: cell-based
setup.conditions: Homo sapiens, KMS-11; KMS11-Par line, ELISA, 72 hours; read-out: H3K36me2 ELISA in KMS11-Par
Lab book: enter the figure in nM, no units written.

stdin: Check the records and state IC50 for Nc1ncnc2c1ncn2Cc1cc(-c2ccc(F)c(F)c2)ncc1N1CCCC(N)(c2cncc(Cl)n2)C1 (stereo not shown)
stdout: 1540

stdin: Quickly give me recorded IC50 for "Nc1ncnc2c1ncn2Cc1cc(-c2ccc(F)cn2)ncc1N1CCC[C@](N)(c2cccc(Cl)n2)C1"
stdout: 2690

stdin: Complete the entry with IC50 for "Nc1ncnc2c1ncn2Cc1cc(-c2ccc(F)c(F)c2)ncc1N1CCC[C@](N)(c2nc(F)ccc2O)C1"
stdout: 1540

stdin: Note IC50 for the molecule shown: "Nc1ncnc2c1ncn2Cc1cc(-c2ccc(F)c(Cl)n2)ncc1N1CCC[C@](N)([C@H](O)C(F)F)C1"
stdout: 11300

----------
assay.system: NSD2 [1-1365] (Homo sapiens (Human))
experiment.description: LC-MS/MS-based NSD2 enzymatic assay (SAH production)
Assay type: biochemical
setup.conditions: read-out: NSD2 IC50
pIC50: −log10 of the molar value.
recorded.metric: pIC50

stdin: Return the recorded pIC50 value; entry: "Nc1ncnc2c1ncn2Cc1cc(-c2ccc(F)c(F)c2)ncc1N1CC[C@@H](O)[C@](N)(c2cccc(Cl)n2)C1"
stdout: 6.00 to 8.00

stdin: Give pIC50 for "CC(C)n1ccc([C@@]2(N)CCCN(c3cnc(-c4ccc(F)cc4)cc3Cn3cnc4c(N)ncnc43)C2)n1"
stdout: 8.00 to 9.00

stdin: Answer with the recorded pIC50 of Cc1cccc(C2(N)CCCN(c3cnc(C4CC4)cc3Cn3cnc4c(N)nccc43)C2)n1 (stereo not shown) only.
stdout: 6.00 to 8.00

stdin: State its pIC50 for this compound: "Nc1ncnc2c1ncn2Cc1cc(-c2ccc(F)c(F)c2)ncc1N1CCC[C@](N)(c2cc(O)cc(F)n2)C1"
stdout: 8.00 to 9.00

----------
assay.system: NSD2 [1-1365] (Homo sapiens (Human), UniProt O96028)
Sequence (O96028 whole entry): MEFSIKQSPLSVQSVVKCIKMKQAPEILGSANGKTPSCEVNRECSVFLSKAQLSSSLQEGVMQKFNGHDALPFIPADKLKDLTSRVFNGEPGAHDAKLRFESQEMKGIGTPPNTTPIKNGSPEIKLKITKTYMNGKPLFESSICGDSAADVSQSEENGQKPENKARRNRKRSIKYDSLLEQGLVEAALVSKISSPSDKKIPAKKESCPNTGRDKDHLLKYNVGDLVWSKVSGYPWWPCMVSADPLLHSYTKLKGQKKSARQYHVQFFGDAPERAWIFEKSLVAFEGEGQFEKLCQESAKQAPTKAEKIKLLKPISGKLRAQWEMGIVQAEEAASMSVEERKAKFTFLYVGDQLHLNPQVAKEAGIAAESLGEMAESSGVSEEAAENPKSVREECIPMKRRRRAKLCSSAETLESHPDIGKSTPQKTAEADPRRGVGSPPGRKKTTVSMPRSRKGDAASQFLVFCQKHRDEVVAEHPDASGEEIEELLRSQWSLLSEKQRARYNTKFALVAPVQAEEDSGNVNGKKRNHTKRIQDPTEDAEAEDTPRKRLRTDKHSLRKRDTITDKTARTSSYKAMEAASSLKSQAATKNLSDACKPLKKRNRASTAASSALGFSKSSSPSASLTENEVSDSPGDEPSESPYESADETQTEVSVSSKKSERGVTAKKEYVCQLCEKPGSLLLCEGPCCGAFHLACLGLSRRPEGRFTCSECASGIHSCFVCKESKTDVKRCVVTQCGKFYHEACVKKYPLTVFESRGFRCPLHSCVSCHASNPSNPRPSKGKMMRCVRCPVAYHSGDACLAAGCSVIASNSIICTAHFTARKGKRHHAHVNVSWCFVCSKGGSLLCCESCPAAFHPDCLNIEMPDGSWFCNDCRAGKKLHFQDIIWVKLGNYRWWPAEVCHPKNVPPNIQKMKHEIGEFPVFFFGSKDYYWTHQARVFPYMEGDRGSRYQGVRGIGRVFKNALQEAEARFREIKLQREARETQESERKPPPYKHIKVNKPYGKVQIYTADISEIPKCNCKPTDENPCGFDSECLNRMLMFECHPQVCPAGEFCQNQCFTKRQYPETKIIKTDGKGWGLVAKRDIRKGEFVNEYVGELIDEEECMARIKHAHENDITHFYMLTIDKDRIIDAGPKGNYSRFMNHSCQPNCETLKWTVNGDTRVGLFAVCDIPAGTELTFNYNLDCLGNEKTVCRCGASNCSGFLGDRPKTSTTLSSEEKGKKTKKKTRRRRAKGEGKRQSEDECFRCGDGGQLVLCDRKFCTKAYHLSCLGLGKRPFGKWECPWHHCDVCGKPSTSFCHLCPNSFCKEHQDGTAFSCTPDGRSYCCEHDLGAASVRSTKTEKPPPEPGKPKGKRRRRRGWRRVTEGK
experiment.description: LC-MS/MS-based NSD2 enzymatic assay (SAH production)
Assay type: biochemical
setup.conditions: NSD2 IC50
recorded.metric: IC50

stdin: Tell me IC50 reported for "Cn1ncc([C@@]2(N)CCCN(c3cnc(-c4ccc(F)c(F)c4)cc3Cn3cnc4c(N)ncnc43)C2)n1"
stdout: 1 to 10 nM

----------
assay.system: NSD2 [1-1365] (Homo sapiens (Human), UniProt O96028)
experiment.description: LC-MS/MS-based NSD2 enzymatic assay (SAH production)
Format: biochemical
setup.conditions: read-out: NSD2 IC50
recorded.metric: IC50

stdin: For the compound "Nc1ncnc2c1ncn2Cc1cc(-c2ccc(F)c(F)c2)ncc1N1CCC[C@@H](N)[C@H]1[C@@H](O)C(F)(F)F" , report IC50.
stdout: > 1000 nM

stdin: Tell us which IC50 value is on record for "COc1cccc([C@@]2(N)CCCN(c3cnc(-c4ccc(F)c(F)c4)cc3Cn3cnc4c(N)ncnc43)C2)n1"
stdout: 1 to 10 nM

stdin: Report measured IC50; entry is "Nc1ncnc2c1ncn2Cc1cc(-c2ccc(F)c(F)c2)ncc1N1CCC[C@@H](N)[C@H]1COC(F)F"
stdout: 10 to 1000 nM

stdin: Return the recorded IC50 value; entry: "CCn1ccc([C@@]2(N)CCCN(c3cnc(C4CC4)cc3Cn3cnc4c(N)nccc43)C2)n1"
stdout: 10 to 1000 nM

stdin: Return IC50 (reported value) for this compound: "Nc1nccc2c1ncn2Cc1cc(-c2ccc(F)cc2)ncc1N1CCC[C@](N)(c2ccn(C(F)F)n2)C1"
stdout: 1 to 10 nM

stdin: Tell me IC50 reported for Nc1ncnc2c1ncn2Cc1cc(-c2ccc(F)cc2)ncc1N1CCCC(N)(c2cccc(Cl)n2)C1 (centres unmarked)
stdout: 1 to 10 nM

stdin: Retrieve IC50 measured for "Nc1ncnc2c1ncn2Cc1cc(-c2ccc(F)c(F)c2)ncc1N1CCC[C@](N)(c2ccnc(Cl)c2)C1" and print it.
stdout: 10 to 1000 nM

stdin: Tell me IC50 reported for Nc1ncnc2c1ncn2Cc1cc(-c2ccc(F)c(F)c2)ncc1N1CCCC(N)(c2ccn(C3CC3)n2)C1 (centres unmarked)
stdout: 1 to 10 nM

stdin: Supply IC50 value. Item: "Cc1nc([C@@]2(N)CCCN(c3cnc(-c4ccc(F)cc4)cc3Cn3cnc4c(N)ncnc43)C2)ccc1F"
stdout: 1 to 10 nM

stdin: Input "COc1c(F)cc(-c2cc(Cn3cnc4c(N)ncnc43)c(N3CCC[C@](N)(c4cccc(Cl)n4)C3)cn2)cc1F" , output reported IC50.
stdout: 1 to 10 nM

stdin: Fill in IC50 for record "Nc1ncnc2c1ncn2Cc1cc(-c2ccc(F)cn2)ncc1N1CCC[C@](N)(c2cccc(Cl)n2)C1"
stdout: 10 to 1000 nM

stdin: Look up and state reported IC50 for "Nc1ncnc2c1ncn2Cc1cc(-c2cc(F)c(F)cc2F)ncc1N1CCC[C@](N)([C@@H](F)CO)C1"
stdout: 1 to 10 nM

stdin: Retrieve IC50 measured for Cn1cnc2ccc(-c3cc(Cn4cnc5c(N)ncnc54)c(N4CCCC(N)(c5cccc(Cl)n5)C4)cn3)cc21 (centres unmarked) and print it.
stdout: 10 to 1000 nM

stdin: Read off the recorded IC50 for "COc1ccc(-c2cc(Cn3cnc4c(N)ncnc43)c(N3CCC[C@](N)(c4ccc(F)c(Cl)n4)C3)cn2)cc1F"
stdout: 1 to 10 nM

stdin: Please give measured IC50 of the following entry: "C[C@@H]1CN(c2cnc(-c3ccc(F)cc3)cc2Cn2cnc3c(N)ncnc32)C[C@@](N)(CC(F)F)C1"
stdout: > 1000 nM

stdin: Read the entry "Nc1ncnc2c1ncn2Cc1cc(-c2ccc(F)c(F)c2)ncc1N1CCC[C@](N)(c2cccc(F)n2)C1" and write its reported IC50.
stdout: 1 to 10 nM

stdin: Return IC50 (reported value) for this compound: Nc1ncnc2c1ncn2Cc1cc(-c2ccc3c(c2)COC3)ncc1N1CCCC(N)(c2cccc(Cl)n2)C1 (centres unmarked)
stdout: 10 to 1000 nM

stdin: Please list IC50 recorded for the compound "Nc1ncnc2c1ncn2Cc1cc(-c2ccc(F)c(F)c2)ncc1N1CCC[C@](N)(c2ccccn2)C1"
stdout: 1 to 10 nM

stdin: Please indicate IC50 recorded for Nc1ncnc2c1ncn2Cc1cc(-c2ccc(F)cc2)ncc1N1CCCC(N)(c2ccc(F)cn2)C1 (centres unmarked)
stdout: 10 to 1000 nM

stdin: Complete the entry with IC50 for "Nc1ncnc2c1ncn2Cc1cc(-c2ccc(F)c(F)c2)ncc1N1CCC[C@@H](N)[C@H]1CCO"
stdout: 10 to 1000 nM

stdin: Tell me its IC50 given "C#C[C@@]1(N)CCCN(c2cnc(-c3ccc(F)c(F)c3)cc2Cn2cnc3c(N)ncnc32)C1" as the entry.
stdout: 10 to 1000 nM

stdin: Respond only with IC50 recorded for Nc1ncnc2c1ncn2Cc1cc(-c2ccc(F)c(F)c2)ncc1N1CCC(O)C(N)(CC(F)F)C1 (centres unmarked)
stdout: 10 to 1000 nM

stdin: Read off the recorded IC50 for Nc1nccc2c1ncn2Cc1cc(-c2ccc(F)cc2)ncc1N1CCCC(N)(c2ccn(C3CC3)n2)C1 (centres unmarked)
stdout: 1 to 10 nM

stdin: Look up and state reported IC50 for "Nc1ncnc2c1ncn2Cc1cc(-c2ccc(F)c(F)c2)ncc1N1CCC[C@](N)(c2nc(F)ccc2O)C1"
stdout: 1 to 10 nM

stdin: Output measured IC50 for this item: "Nc1ncnc2c1ncn2Cc1cc(-c2ccc(F)c(Cl)n2)ncc1N1CCC[C@](N)([C@H](O)C(F)F)C1"
stdout: 10 to 1000 nM

stdin: Write down IC50 measured for item "Nc1ncnc2c1ncn2Cc1cc(-c2ccc3c(c2)CCO3)ncc1N1CCC[C@](N)(c2cccc(Cl)n2)C1"
stdout: 10 to 1000 nM

stdin: Please look at this compound and report its IC50: "COc1ccc(-c2cc(Cn3cnc4c(N)ncnc43)c(N3CCC[C@](N)(c4cccc(Cl)n4)C3)cn2)nc1F"
stdout: 1 to 10 nM

stdin: Note IC50 for the compound shown: "C[C@@H](F)c1cccc([C@@]2(N)CCCN(c3cnc(-c4ccc(F)cc4)cc3Cn3cnc4c(N)ncnc43)C2)n1"
stdout: 10 to 1000 nM

stdin: Could you please provide reported IC50 for Nc1ncnc2c1ncn2Cc1cc(-c2ccc(OC(F)F)cc2)ncc1N1CCCC(N)(c2cccc(Cl)n2)C1 (centres unmarked) ? Thanks!
stdout: 10 to 1000 nM
